Exercise: for every item that follows, state its recorded GI50.
- Test system: SK-OV-3
- Experiment Summary: NCI tumour cell line growth inhibition, 48 h
The source made the active and inactive calls. No stated cut-off is given here; in the data, active = GI50 up to about 1.1 µM and inactive = higher.

- Compound: "CO/N=C1/C(n2[nH]c(=O)n(-c3ccccc3)c2=O)C2C=CC1n1c(=O)n(-c3ccccc3)c(=O)n12 (stereo unspecified)"
  GI50: "> 100 µM (inactive)"
- Compound: "CN(C)Cc1cc(C(C)(C)C)cc(C2CCCCC2)c1O"
  GI50: "15 µM (inactive)"
- Compound: "Nc1ncc2c(n1)-c1ccccc1OC2N1CCCCC1 (stereo unspecified)"
  GI50: "> 100 µM (inactive)"
- Compound: "Cc1ccc(C)c(/C(=N\\N=C(N)N)C2CC2)c1"
  GI50: "> 100 µM (inactive)"
- Compound: "Nc1ccn(CC(CO)CC(c2ccccc2)P(=O)(O)O)c(=O)n1 (stereo unspecified)"
  GI50: "> 100 µM (inactive)"

Please give GI50, item by item, for the list that follows.
1. O=S(=O)(O)c1ccc(/N=N/c2c(O)ccc3ccccc23)cc1
2. NS(=O)(=O)c1nnc(NS(=O)(=O)c2cccc3cccnc23)s1
3. CCC12CCC(O)C1N(C)CCC2Sc1ccccc1 (stereo unspecified)
4. COC(=O)C1=Cc2cc(OC)c(OC)c(OC)c2[C@H](c2cc(OC)c(OC)c(OC)c2)C1C(=O)OC (stereo partly specified)
5. NC1CC(Cl)c2c(Cl)sc(Cl)c21 (stereo unspecified)
6. CCOC(=O)c1c2ccccc2n2c(=O)n(-c3ccc(OC)cc3)nnc12

> 100 µM (inactive)
> 100 µM (inactive)
> 100 µM (inactive)
> 100 µM (inactive)
> 100 µM (inactive)
26.7 µM (inactive)
